Assay remarks: excess molar enthalpy (molar enthalpy of mixing); xn = mol fraction of the nth substance listed
Assay conditions: 298.15 K; 101 kPa; Liquid; Flow calorimetry; x2 = 0.85
This listing pairs compounds with measured excess molar enthalpy.
Expressed in kcal/mol, but write only the number.

Sample answers from the record:
Look up excess molar enthalpy: CC(C)C(C)C [2,3-dimethylbutane] + CCCOCCC
0.0193

Continue with CC(C)C(C)C [2,3-dimethylbutane] + CCCCOCCCC
0.0133

Further cases:
Recorded excess molar enthalpy for CCC(C)(C)C [2,2-dimethylbutane] + CCCOCCC , please?
0.0179

Then CCC(C)(C)C [2,2-dimethylbutane] + CCCCOCCCC ?
0.0119
